Experiment: NCI Yeast Anticancer Drug Screen. Data for the sgs1 mgt1 strain (AID 161)
Conditions: S. cerevisiae sgs1 mgt1 strain, at 50.0 µM
Compounds without any hit were thinned out: in the full panel of roughly 79,000, 15% have a hit. Calls of active or inactive are those of the source. Rule as the data show it: active = growth inhibition above about 70%; inactive = the rest.
Your answer must be one of the following: y for active, n for inactive

For orientation, consider the following solved cases.
[
  {
    "compound": "CC1(C)[C@@H]2CC[C@]1(C)[C@H](OC(=O)CSC#N)C2",
    "label class": "y"
  },
  {
    "compound": "CCC(C)COC(=O)c1ccc(N=Cc2ccc(C=Nc3ccc(C(=O)OCC(C)CC)cc3)cc2)cc1 (stereo not drawn)",
    "label class": "y"
  }
]

### Prompt Test call for this compound, please: COc1cc(C2c3cc4c(cc3OC(Nc3ccccc3)C2C)OCO4)cc(OC)c1O (stereo not drawn)
### Response n

The measurements presented in this section are drawn from PubChem BioAssay (NCI).
